Every entry's value here was drawn from patent US20230029453A1.

- assay system: T1, HLA-B*08:01 (human, biotinylated heavy chain)
- T1 construct: Conditional HLA class I complex as for m1
- experiment description: UV peptide exchange; HLA class I ELISA
recorded endpoint: Exch II (%)

- binder: "LIAMDSAIT [Peptide 10, 9-mer LIAMDSAIT derived from P22 (SEQ ID NO: 1003)]"
  recorded endpoint: "Exch II (%)"
  endpoint value: 7.7
- binder: "IAMDSAITL [Peptide 2, 9-mer IAMDSAITL derived from FUS1 (SEQ ID NO: 1001)]"
  recorded endpoint: "Exch II (%)"
  endpoint value: 8.1
- binder: "LYHREKQLI [Peptide 5, 9-mer LYHREKQLI derived from P22 (SEQ ID NO: 1003)]"
  recorded endpoint: "Exch II (%)"
  endpoint value: 7.9
- binder: "SLYHREKQL [Peptide 4, 9-mer SLYHREKQL derived from P22 (SEQ ID NO: 1003)]"
  recorded endpoint: "Exch II (%)"
  endpoint value: 21.1
- binder: "AMDSAITLW [Peptide 1, 9-mer AMDSAITLW derived from FUS1 (SEQ ID NO: 1001)]"
  recorded endpoint: "Exch II (%)"
  endpoint value: 7.3
